Listed next: entries and their corresponding inhibition at 100 µM.
biological target: PLA2 (Homo sapiens, UniProt P14555); construct: The enzyme is isolated from human platelets; from tissue; host or cells: human platelets; assay: PLA2 Inhibition Assay (14C-oleate labeled E. coli membrane substrate); format: biochemical; details: Table 2, Structure 14 (Type IA); 100 μM; enzyme isolated from human platelets
Sequence (P14555 21-144): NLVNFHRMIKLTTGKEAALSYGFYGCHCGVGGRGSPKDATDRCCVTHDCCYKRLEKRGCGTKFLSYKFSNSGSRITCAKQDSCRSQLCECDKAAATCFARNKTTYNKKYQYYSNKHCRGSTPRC

{"compound": "COc1ccc(CC/C=C(/C=C\\C(=O)O)c2ccccc2)cc1C12CC3CC(CC(C3)C1)C2 [Structure 14l]", "inhibition at 100 µM": "99%"}
{"compound": "O=C(O)/C=C\\C(=C\\CCc1ccc(C23CC4CC(CC(C4)C2)C3)c(OCc2cc(F)cc(F)c2)c1)c1cccc(C(F)(F)F)c1 [Structure 14s]", "inhibition at 100 µM": "100%"}
{"compound": "COc1ccc(CC/C=C(/C=C\\C(=O)O)c2cccc(C(F)(F)F)c2)c(C23CC4CC(CC(C4)C2)C3)c1 [Structure 14o]", "inhibition at 100 µM": "99%"}
{"compound": "O=C(O)/C=C\\C(=C\\CCc1ccc(C23CC4CC(CC(C4)C2)C3)c(O)c1)c1cccc(C(F)(F)F)c1 [Structure 14q]", "inhibition at 100 µM": "100%"}
{"compound": "CCCCCOc1cc(CC/C=C(/C=C\\C(=O)O)c2cccc(C(F)(F)F)c2)ccc1C12CC3CC(CC(C3)C1)C2 [Structure 14r]", "inhibition at 100 µM": "95%"}
{"compound": "CC(C)=CCC/C(C)=C/COc1ccc(/C=C(/C=C\\C(=O)O)c2cccc(C(F)(F)F)c2)cc1 [Structure 14d]", "inhibition at 100 µM": "98%"}
{"compound": "COc1cc(/C=C(/C=C\\C(=O)O)c2cccc(C(F)(F)F)c2)ccc1C12CC3CC(CC(C3)C1)C2 [Structure 14p]", "inhibition at 100 µM": "93%"}
{"compound": "O=C(O)/C=C\\C(=C\\CCc1ccc(C23CC4CC(CC(C4)C2)C3)c(OCc2ccccc2)c1)c1cccc(C(F)(F)F)c1 [Structure 14u]", "inhibition at 100 µM": "100%"}
{"compound": "CCCCCCCCCCOc1ccc(/C=C(/C=C\\C(=O)O)c2cccc(C(F)(F)F)c2)cc1 [Structure 14a]", "inhibition at 100 µM": "100%"}
{"compound": "COc1ccc(COc2cc(CC/C=C(/C=C\\C(=O)O)c3cccc(C(F)(F)F)c3)ccc2C23CC4CC(CC(C4)C2)C3)cc1 [Structure 14t]", "inhibition at 100 µM": "100%"}

* * *

Listed next: entries and their corresponding inhibition at 100 µM.
Biological target: PLA2 (Homo sapiens, UniProt P14555)
Construct: The enzyme is isolated from human platelets; from tissue; host or cells: human platelets
Test: PLA2 Inhibition Assay (14C-oleate labeled E. coli membrane substrate)
Assay type: biochemical
Details: Table 1, Structure 11 (Type IA); 100 μM; enzyme isolated from human platelets
Protocol: The method used is similar to that reported by Franson, et al. [Jesse, R. L. and Franson R. C., Biochim. Biophys. Acta 575:467-470 (1979); Franson, R. C., Patriarca, P., and Elsback, P., J. Lipid Res. 15: 380-388 (1974)]. The enzyme is isolated from human platelets. The substrate used consists of ^14 C-oleate labeled Escherichia coli membranes. […] Percent inhibition is determined by the equation: [formula]
endpoint: inhibition at 100 µM

{"compound": "CC(=C/C(=O)O)/C(=C/c1ccc2cc3c(cc2c1)C(C)(C)CCC3(C)C)c1cccc(C(=O)O)c1 [Structure 11k]", "endpoint": "inhibition at 100 µM", "result": "98%"}
{"compound": "O=C(O)/C=C\\C(=C\\c1ccccc1)c1cccc(C(=O)O)c1 [Structure 11a]", "endpoint": "inhibition at 100 µM", "result": "6%"}
{"compound": "CC1(C)CCC(C)(C)c2cc(/C=C(/C=C\\C(=O)O)c3cccc(C(=O)O)c3)ccc21 [Structure 11b]", "endpoint": "inhibition at 100 µM", "result": "44%"}
{"compound": "CCCCCCCCCCOc1ccc(/C=C(/C=C\\C(=O)O)c2cccc(C(=O)O)c2)cc1OCCCCCCCCCC [Structure 11e]", "endpoint": "inhibition at 100 µM", "result": "100%"}
{"compound": "COc1ccc(CC/C=C(/C=C\\C(=O)O)c2cccc(C(=O)O)c2)cc1C12CC3CC(CC(C3)C1)C2 [Structure 11j]", "endpoint": "inhibition at 100 µM", "result": "98%"}
